- studySystem: TAAR1 (Mus musculus, UniProt Q923Y8)
- Construct: expressed in transfected cells; host or cells: HEK293 (ATCC # CRL-1573), stably transfected with pIRESneo2 expression plasmid; membranes prepared
- Sequence (Q923Y8 whole entry): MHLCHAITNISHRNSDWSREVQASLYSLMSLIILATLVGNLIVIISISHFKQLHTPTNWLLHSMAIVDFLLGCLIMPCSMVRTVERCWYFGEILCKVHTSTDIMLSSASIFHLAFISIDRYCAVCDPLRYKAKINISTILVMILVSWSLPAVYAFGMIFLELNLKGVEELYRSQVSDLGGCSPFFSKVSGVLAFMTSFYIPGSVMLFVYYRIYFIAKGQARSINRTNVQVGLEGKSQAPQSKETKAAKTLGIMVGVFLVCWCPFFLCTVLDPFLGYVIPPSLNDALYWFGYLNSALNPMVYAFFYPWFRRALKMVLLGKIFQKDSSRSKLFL
- protocolSummary: TAAR1 radioligand binding assay on membranes of stably transfected HEK293 cells
quantityMeasured: Ki (nM)
Numbers only, in nM.

{"compound": "CCc1cccc2c1N(Cc1ncc[nH]1)CC2", "Ki [nM]": 43.5}
{"compound": "COc1cccc2c1CCN2Cc1ncc[nH]1", "Ki [nM]": 115}
{"compound": "Clc1cccc2c1CCN2Cc1ncc[nH]1", "Ki [nM]": 36.2}
{"compound": "Clc1ccc2c(c1)N(Cc1ncc[nH]1)CC2", "Ki [nM]": 35}
{"compound": "COc1cccc2c1N(Cc1ncc[nH]1)CC2", "Ki [nM]": 118}

Record Ki for all entries; do not skip any.
1. C[C@@H]1c2ccccc2N(Cc2ncc[nH]2)[C@@H]1C (racemic)
2. Cc1cccc2c1N(Cc1ncc[nH]1)CC2
3. Cc1cccc2c1CCN2Cc1ncc[nH]1

[196, 173, 125]

Hello, I would appreciate it if you could give Ki for each entry below.
1. Brc1ccc2c(c1)CCN2Cc1ncc[nH]1
2. c1ccc2c(c1)CCN2Cc1ncc[nH]1
3. c1ccc(Oc2cccc3c2CCCN3Cc2ncc[nH]2)cc1

1: 55; 2: 28.9; 3: 4.6
